# assayed-system: FGFR3 (Homo sapiens, UniProt P22607)
# Sequence (P22607 23-806): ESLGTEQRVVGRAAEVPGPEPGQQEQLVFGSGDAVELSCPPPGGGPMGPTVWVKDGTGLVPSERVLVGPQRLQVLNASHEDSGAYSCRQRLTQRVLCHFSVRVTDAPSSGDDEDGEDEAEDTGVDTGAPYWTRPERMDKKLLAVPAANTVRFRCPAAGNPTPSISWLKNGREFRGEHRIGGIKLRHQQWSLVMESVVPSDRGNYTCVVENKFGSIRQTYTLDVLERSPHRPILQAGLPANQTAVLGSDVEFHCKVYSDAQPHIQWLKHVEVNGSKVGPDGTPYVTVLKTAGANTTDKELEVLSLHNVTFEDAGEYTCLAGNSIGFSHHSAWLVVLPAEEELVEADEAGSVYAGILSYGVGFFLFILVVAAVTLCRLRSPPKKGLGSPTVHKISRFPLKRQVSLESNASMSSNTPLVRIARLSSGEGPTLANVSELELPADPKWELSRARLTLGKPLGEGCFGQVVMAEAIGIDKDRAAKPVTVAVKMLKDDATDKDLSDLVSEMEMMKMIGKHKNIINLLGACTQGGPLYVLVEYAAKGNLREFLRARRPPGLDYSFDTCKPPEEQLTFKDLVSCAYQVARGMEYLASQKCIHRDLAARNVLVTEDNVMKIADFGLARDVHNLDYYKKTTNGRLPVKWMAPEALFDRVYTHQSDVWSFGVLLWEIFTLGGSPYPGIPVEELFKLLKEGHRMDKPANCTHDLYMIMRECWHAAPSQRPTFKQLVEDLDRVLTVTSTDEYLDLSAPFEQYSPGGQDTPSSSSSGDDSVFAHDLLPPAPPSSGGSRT
pIC50: −log10 of the molar value.

- substance-smiles: "N[C@H]1CC[C@H](Nc2cc(-c3cccc(NCc4cccc(F)c4)n3)c(Cl)cn2)CC1"
  pIC50: "< 5.00"

---

# assayed-system: CDK2-CycA (Homo sapiens)

- substance-smiles: "N[C@H]1CC[C@H](Nc2cc(-c3cccc(NCc4cccc(F)c4)n3)c(Cl)cn2)CC1"
  IC50 [nM]: 240

---

# assayed-system: JAK1(JH2domain-pseudokinase) (Homo sapiens)
# Sequence (P23458 583-855 limits assumed): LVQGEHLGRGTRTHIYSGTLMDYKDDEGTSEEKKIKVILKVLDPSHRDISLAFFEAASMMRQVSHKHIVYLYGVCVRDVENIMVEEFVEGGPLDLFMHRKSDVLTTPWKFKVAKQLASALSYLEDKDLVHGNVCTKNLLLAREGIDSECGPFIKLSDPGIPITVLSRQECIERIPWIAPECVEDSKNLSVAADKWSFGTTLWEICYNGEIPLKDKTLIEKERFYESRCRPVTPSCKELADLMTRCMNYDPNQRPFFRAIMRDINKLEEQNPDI
# test-description: biochemical binding or enzymatic assay
# conditions: Novartis
quantity-kind: IC50

- substance-smiles: "N[C@H]1CC[C@H](Nc2cc(-c3cccc(NCc4cccc(F)c4)n3)c(Cl)cn2)CC1"
  recorded-value: "> 10 µM"

---

# assayed-system: JAK1(JH1domain-catalytic) (Homo sapiens, UniProt P23458)
# Sequence (P23458 875-1153 limits assumed): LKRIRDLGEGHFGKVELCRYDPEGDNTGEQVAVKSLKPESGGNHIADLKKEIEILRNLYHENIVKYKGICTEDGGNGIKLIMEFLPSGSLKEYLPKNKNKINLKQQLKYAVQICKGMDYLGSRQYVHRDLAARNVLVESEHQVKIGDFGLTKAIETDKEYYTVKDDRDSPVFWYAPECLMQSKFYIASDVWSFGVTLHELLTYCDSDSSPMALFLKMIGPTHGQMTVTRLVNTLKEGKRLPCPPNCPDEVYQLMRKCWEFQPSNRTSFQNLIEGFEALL

- molecule: "N[C@H]1CC[C@H](Nc2cc(-c3cccc(NCc4cccc(F)c4)n3)c(Cl)cn2)CC1 [i-CDK9]"
  IC50: "> 10 µM"

---

# assayed-system: EPHB4 (Homo sapiens)
# Sequence (P54760 16-987): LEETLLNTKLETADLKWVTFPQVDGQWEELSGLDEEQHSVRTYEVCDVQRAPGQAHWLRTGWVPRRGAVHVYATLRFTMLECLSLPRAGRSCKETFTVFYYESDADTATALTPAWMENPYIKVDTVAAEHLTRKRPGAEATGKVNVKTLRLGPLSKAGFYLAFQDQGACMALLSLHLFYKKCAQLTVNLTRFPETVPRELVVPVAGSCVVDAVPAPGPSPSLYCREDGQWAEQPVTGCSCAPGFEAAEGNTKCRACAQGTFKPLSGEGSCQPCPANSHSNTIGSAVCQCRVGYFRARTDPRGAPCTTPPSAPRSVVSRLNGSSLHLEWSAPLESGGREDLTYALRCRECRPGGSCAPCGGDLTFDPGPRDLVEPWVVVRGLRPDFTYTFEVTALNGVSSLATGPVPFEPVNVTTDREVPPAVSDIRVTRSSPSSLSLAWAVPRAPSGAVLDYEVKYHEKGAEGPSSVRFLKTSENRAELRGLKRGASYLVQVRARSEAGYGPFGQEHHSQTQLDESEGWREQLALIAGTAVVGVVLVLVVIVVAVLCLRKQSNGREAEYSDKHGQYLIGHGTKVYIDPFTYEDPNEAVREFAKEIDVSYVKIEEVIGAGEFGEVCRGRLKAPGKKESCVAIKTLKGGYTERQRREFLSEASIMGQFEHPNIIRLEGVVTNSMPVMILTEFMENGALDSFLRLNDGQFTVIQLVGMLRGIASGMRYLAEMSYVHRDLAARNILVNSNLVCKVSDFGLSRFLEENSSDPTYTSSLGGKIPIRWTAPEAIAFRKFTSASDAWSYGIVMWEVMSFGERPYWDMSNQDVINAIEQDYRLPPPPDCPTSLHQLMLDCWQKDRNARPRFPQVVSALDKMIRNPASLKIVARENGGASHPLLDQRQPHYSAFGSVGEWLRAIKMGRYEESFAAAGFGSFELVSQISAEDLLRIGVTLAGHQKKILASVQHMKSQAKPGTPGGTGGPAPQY
quantity-kind: IC50

- compound: "N[C@H]1CC[C@H](Nc2cc(-c3cccc(NCc4cccc(F)c4)n3)c(Cl)cn2)CC1 [i-CDK9]"
  quantity-kind: "IC50"
  recorded-value: "> 10 µM"

All values here come from paper PMC4490784.
